# Study system: human recombinant LPA2 expressed in CHO cells (Homo sapiens, UniProt Q9HBW0)
# Construct: expressed in transfected cells; host or cells: CHO cells (CHO-hLPA2 cell line)
# Sequence (Q9HBW0 whole entry): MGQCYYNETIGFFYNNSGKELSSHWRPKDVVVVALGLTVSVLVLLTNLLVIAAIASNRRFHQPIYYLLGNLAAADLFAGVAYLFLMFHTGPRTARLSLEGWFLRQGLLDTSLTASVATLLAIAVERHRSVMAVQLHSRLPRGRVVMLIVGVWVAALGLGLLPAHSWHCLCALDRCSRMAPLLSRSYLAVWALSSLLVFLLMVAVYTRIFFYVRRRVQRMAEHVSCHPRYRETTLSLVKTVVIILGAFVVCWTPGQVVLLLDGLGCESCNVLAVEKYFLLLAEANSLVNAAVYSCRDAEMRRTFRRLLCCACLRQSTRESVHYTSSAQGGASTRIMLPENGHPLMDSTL
# Assay procedure: FLIPR calcium mobilization assay, LPA2 antagonism in CHO-hLPA2 cells
# Assay type: cell-based
# Settings: CHO-hLPA2 cells, inhibition of LPA EC80 Ca2+ response, 30 min pre-incubation; read-out: LPA2 IC50
pIC50: −log10 of the molar value.
Property label: pIC50

Previously resolved entries follow.
Entry smiles | Study system | pIC50
Cc1nc2ccc(S(=O)(=O)N3CCN(C[C@H](C)Nc4ncnc5c(-c6ccc(F)c(CN(C)C)c6)cccc45)CC3)cc2s1 | human recombinant LPA2 expressed in CHO cells (Homo sapiens, UniProt Q9HBW0) | > 8.00
COC(=O)Nc1nc(C)c(S(=O)(=O)N2CCN(C[C@H](C)Nc3ncnc4c(-c5cccnc5C)cccc34)CC2)s1 | human recombinant LPA2 expressed in CHO cells (Homo sapiens, UniProt Q9HBW0) | > 8.00
COC(=O)Nc1nc(C)c(S(=O)(=O)N2CCN(C[C@H](C)Nc3ncnc4c(-c5ccnc(N6CCN(C)CC6)c5)cccc34)CC2)s1 | human recombinant LPA2 expressed in CHO cells (Homo sapiens, UniProt Q9HBW0) | > 8.00
COC(=O)Nc1nc(C)c(S(=O)(=O)N2CCN(C[C@H](C)Nc3ncnc4c(-c5c(C)n[nH]c5C)cccc34)CC2)s1 | human recombinant LPA2 expressed in CHO cells (Homo sapiens, UniProt Q9HBW0) | > 8.00
COC(=O)Nc1nc(C)c(S(=O)(=O)N2CCN(C[C@H](C)Nc3ncnc4c(-c5cncnc5)cccc34)CC2)s1 | human recombinant LPA2 expressed in CHO cells (Homo sapiens, UniProt Q9HBW0) | > 8.00

Parameter requested: pIC50. Apply to each item below.
1. Cc1cc(C(=O)Nc2nc(C)c(S(=O)(=O)N3CCN(C[C@H](C)Nc4ncnc5c(-c6cccnc6)cccc45)CC3)s2)no1
2. COC(=O)Nc1nc(C)c(S(=O)(=O)N2CCN(C[C@H](C)Nc3ncnc4c(-c5cnc(C)cn5)cccc34)CC2)s1
3. COCC(=O)Nc1ncc(S(=O)(=O)N2CCN(C[C@H](C)Nc3ncnc4c(-c5cccnc5)cccc34)CC2)s1
4. COC(=O)Nc1nc(C)c(S(=O)(=O)N2CCN(C[C@H](C)Nc3ncnc4c(-c5cncc(CN(C)C)c5)cccc34)CC2)s1
5. COC(=O)Nc1nc(C)c(S(=O)(=O)N2CCN(C[C@H](C)Nc3ncnc4c(-c5ccc(C)c(CN(C)C)c5)cccc34)CC2)s1
6. COC(=O)Nc1nc(C)c(S(=O)(=O)N2CCN(C[C@H](C)Nc3ncnc4c(-c5cccc(CN(C)C)c5C)cccc34)CC2)s1
7. Cc1cc(-c2cc(S(=O)(=O)N3CCN(C[C@H](C)Nc4ncnc5c(-c6cccc(CN(C)C)c6)cccc45)CC3)cs2)on1

**Result**
> 8.00
7.00 to 8.00
7.00 to 8.00
> 8.00
> 8.00
> 8.00
> 8.00
